# test_system: NanoLuc VHL fusion protein (Homo sapiens (Human), UniProt P40337)
# Sequence (P40337 whole entry, looked up, the tested form may be a part): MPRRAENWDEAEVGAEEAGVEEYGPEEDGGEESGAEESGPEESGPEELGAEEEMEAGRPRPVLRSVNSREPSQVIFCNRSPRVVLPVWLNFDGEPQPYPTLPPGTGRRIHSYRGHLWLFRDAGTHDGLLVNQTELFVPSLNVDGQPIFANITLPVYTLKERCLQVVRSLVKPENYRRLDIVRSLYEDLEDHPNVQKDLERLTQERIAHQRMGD
# Sequence (Q15370 whole entry partner, looked up, the tested form may be a part): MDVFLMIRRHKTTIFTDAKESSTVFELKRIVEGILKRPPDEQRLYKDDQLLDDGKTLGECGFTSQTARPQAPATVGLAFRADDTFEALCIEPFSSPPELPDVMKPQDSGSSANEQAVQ
# Sequence (Q15369 whole entry partner, looked up, the tested form may be a part): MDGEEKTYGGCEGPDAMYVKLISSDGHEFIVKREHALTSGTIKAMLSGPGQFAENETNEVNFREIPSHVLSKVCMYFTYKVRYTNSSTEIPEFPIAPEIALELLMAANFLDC
# test_details: VHL HEK-293 BRET Assay (NanoBRET Target Engagement)
# Assay type: cell-based
# condition_parameters: geometric mean where more than one measurement
Catalogue of IC50 values

A selection of reference data follows.
INSERT INTO assay_data (compound, result) VALUES
  ('CC/C(=C(\c1ccc(O)cc1)c1ccc(OCCN(C)C(=O)CCCOCCOc2cc(C(C(=O)N3C[C@H](O)CC3C3=NC(=O)[C@](C)(c4ccc(-c5scnc5C)cc4)N3)C(C)C)on2)cc1)c1ccccc1 (single isomer, unassigned) [Example 1003.2]', '≥ 100 µM'),
  ('Cc1cc(C(C(=O)N2C[C@H](O)CC2C2=NS(=O)(=O)CN2)C(C)C)on1 (single isomer, unassigned) [Example 137.1]', '≥ 100 µM');

So what's the measured IC50 for this one? C#Cc1cccc(Nc2ncnc3cc(OCCOC)c(OCCOCC#CC#CCOc4cc(C(C(=O)N5C[C@H](O)CC5C5=NC(=O)[C@](C)(c6ccc(-c7scnc7C)cc6)N5)C(C)C)on4)cc23)c1 (single isomer, unassigned) [Example 1004.4]
≥ 100 µM

The values you see were collected from patent US11242344B2.
